Provenance of the data: the supplement of paper PMC7125110

B1: glmS ribozyme (parent)
chain: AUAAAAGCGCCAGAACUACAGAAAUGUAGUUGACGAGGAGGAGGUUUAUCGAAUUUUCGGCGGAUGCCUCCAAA

Variants of: B1
protocol: self-cleavage kobs at 160 uM GlcN6P; higher = faster cleavage; RNA array
measurement.parameters: with glucosamine-6-phosphate
Fewer inactive variants are shown than the library holds.
Quick list: self-cleavage kobs at 160 uM GlcN6P per entry.
quantity: self-cleavage kobs at 160 uM GlcN6P (s⁻¹)

{"biosequence": "AUAAAAGCGCCAGAACUACAGAAAUGUAGUUGACGAGGAGGAGCUUUAUCGAAUUUUCGCCGGAUGCCUCCAAA", "inequality.operator": "<", "numeric.value": "1e-05"}
{"biosequence": "AUAAAAGCGCGAGAAGUACAGAAAUGUAGUUGACGAGGAGGAGGUUUAUCGAAUUUUCGGCGGAUGCCUCCAAA", "inequality.operator": "<", "numeric.value": "1e-05"}
{"biosequence": "AUAAAAGCGCCAGACCUACAGAAAUGUAGUGGACGAGGAGGAGGUUUAUCGAAUUUUCGGCGGAUGCCUCCAAA", "inequality.operator": "=", "numeric.value": 0.000187}
{"biosequence": "AUAAAAGCGCGAGAACUACAGAAAUGUAGUUGACGAGGAGCAGGUUUAUCGAAUUUUCGGCGGAUGCCUCCAAA", "inequality.operator": "<", "numeric.value": "1e-05"}
{"biosequence": "AUAAAAGCGCCAGAACUACAGAAAUGUAGUUGACCAGGAGGAGGUUUAUCGAGUUUUCGGCGGAUGCCUCCAAA", "inequality.operator": "<", "numeric.value": "1e-05"}
{"biosequence": "AUAAAAGCGCCAGACCUACAGAAAUGUAGUUGACGAGGAGGAGGUUUAUCGAAUUUUCGGUGGUUGCCUCCAAA", "inequality.operator": "<", "numeric.value": "1e-05"}
{"biosequence": "AUAAAAGCGCAAGAACUACAGAAAUGUAGUUGACGAGGAGGAGGGUUAUCGAAUUUUCGGCGGAUGCCUCCAAA", "inequality.operator": "<", "numeric.value": "1e-05"}
{"biosequence": "AUAAAAGCGCCAGAACUACAGAAAUGUAGUCGACGAGGAGGAGGAUUAUCGAAUUUUCGACGGAUGACUCCAAA", "inequality.operator": "<", "numeric.value": "1e-05"}
{"biosequence": "AUAAAAGCGCCAGAACUACAGAAAUGUAGCUGACGAGGAGGAGGUUUAUCGAAUUUUCGGCGGAUGCCCCCAAA", "inequality.operator": "=", "numeric.value": "3.85e-05"}
{"biosequence": "AUAAAAGCGCCAGAACUACAGAAAUGUAGUUGACGAGGAGGAGGUUUAUCGAAUUGUCGGCGGAUUCCUCCAAA", "inequality.operator": "=", "numeric.value": "6.25e-05"}
{"biosequence": "AUAAAAGCGCCAGAACUACAGAAAUGUAGUUGACGAGGACGAGGUUUAUCGAAUUUUCGGCGGAUGCCUCGAAA", "inequality.operator": "=", "numeric.value": 0.0028}
{"biosequence": "AUAAAAGCGCCAGAACUACAGAAAUGUAGUUGACGAGGAGGAGGUUUAUCGAAUUGUCGGCGGAUGCCUUCAAA", "inequality.operator": "=", "numeric.value": 0.000437}
{"biosequence": "AUAAAAGCGCCAGAACUACAGAAAUGUAGUUGACGAGGAGGAGGUUUAUCGGAUUUUCGGCGGAUGCCUACAAA", "inequality.operator": "=", "numeric.value": "4.3e-05"}
{"biosequence": "AUAAAAGCGCCAGAAGUACAGAAAUGUAGUUGACGAGGAGGAGCUUUAUCGAAUUUUCGGCGGAUGCCUCCAAA", "inequality.operator": "<", "numeric.value": "1e-05"}
{"biosequence": "AUAAAAGCGCCAGAACUACAGAAAUGUAGUUGACGAGGAGGAGGUUUAUCGAAAUUUCGGCGGAUCCCUCCAAA", "inequality.operator": "=", "numeric.value": 0.00012}
{"biosequence": "AUAAAAGCGCCAGAACUACAGAAAUGUAGUUGACGAGGAGGAGGUUUAUCGAACUUUCGGCGGGUGCCUCCAAA", "inequality.operator": "=", "numeric.value": 0.00156}
{"biosequence": "AUAAAAGCGCCAGAACUACAGAAAUGUAGUUGACGAGAAGGAGGUUUAUCGAAUUUUGGGCGGAUGCCUCCAAA", "inequality.operator": "<", "numeric.value": "1e-05"}
{"biosequence": "AUAAAAGCGCCAGAACUACAGAAAUGUAGUUGACCUGGAGGAGGUUUAUCGAAUUUUCGGCGGAUGCCUCCAAA", "inequality.operator": "<", "numeric.value": "1e-05"}
{"biosequence": "AUAAAAGCGCCAGAGCUACAGAAAUGUAGUUGACGAGGAGCAGGUUUAUCGAAUUUUCGGCGGAUGCCUCCAAA", "inequality.operator": "=", "numeric.value": "4.44e-05"}
{"biosequence": "AUAAAAGCGCCAGAACUACAGAAAUGUAGUUGACGAGGAGGAGGUCUAUCGAGUUUUCGGCGGAUGCCUCCAAA", "inequality.operator": "=", "numeric.value": 0.000402}
{"biosequence": "AUAAAAGCGCCAGAACUACAGAAAUGUAGUUGACGAGGAGGUGGUUUAUCGAAUUUUCGGCGGACGCCUCCAAA", "inequality.operator": "<", "numeric.value": "1e-05"}
{"biosequence": "AUAAAAGCGCCAGAACUACAGAAAUGUAGUUGAUGAGGAGGAGGUUUAUCGAAUUAUCGGCGGAUGCCUCCAAA", "inequality.operator": "<", "numeric.value": "1e-05"}
